IC50 values for Adenylate cyclase type 10 (Homo sapiens, UniProt Q96PN6) compiled from several publications are listed below.
Sequence (Q96PN6 whole entry): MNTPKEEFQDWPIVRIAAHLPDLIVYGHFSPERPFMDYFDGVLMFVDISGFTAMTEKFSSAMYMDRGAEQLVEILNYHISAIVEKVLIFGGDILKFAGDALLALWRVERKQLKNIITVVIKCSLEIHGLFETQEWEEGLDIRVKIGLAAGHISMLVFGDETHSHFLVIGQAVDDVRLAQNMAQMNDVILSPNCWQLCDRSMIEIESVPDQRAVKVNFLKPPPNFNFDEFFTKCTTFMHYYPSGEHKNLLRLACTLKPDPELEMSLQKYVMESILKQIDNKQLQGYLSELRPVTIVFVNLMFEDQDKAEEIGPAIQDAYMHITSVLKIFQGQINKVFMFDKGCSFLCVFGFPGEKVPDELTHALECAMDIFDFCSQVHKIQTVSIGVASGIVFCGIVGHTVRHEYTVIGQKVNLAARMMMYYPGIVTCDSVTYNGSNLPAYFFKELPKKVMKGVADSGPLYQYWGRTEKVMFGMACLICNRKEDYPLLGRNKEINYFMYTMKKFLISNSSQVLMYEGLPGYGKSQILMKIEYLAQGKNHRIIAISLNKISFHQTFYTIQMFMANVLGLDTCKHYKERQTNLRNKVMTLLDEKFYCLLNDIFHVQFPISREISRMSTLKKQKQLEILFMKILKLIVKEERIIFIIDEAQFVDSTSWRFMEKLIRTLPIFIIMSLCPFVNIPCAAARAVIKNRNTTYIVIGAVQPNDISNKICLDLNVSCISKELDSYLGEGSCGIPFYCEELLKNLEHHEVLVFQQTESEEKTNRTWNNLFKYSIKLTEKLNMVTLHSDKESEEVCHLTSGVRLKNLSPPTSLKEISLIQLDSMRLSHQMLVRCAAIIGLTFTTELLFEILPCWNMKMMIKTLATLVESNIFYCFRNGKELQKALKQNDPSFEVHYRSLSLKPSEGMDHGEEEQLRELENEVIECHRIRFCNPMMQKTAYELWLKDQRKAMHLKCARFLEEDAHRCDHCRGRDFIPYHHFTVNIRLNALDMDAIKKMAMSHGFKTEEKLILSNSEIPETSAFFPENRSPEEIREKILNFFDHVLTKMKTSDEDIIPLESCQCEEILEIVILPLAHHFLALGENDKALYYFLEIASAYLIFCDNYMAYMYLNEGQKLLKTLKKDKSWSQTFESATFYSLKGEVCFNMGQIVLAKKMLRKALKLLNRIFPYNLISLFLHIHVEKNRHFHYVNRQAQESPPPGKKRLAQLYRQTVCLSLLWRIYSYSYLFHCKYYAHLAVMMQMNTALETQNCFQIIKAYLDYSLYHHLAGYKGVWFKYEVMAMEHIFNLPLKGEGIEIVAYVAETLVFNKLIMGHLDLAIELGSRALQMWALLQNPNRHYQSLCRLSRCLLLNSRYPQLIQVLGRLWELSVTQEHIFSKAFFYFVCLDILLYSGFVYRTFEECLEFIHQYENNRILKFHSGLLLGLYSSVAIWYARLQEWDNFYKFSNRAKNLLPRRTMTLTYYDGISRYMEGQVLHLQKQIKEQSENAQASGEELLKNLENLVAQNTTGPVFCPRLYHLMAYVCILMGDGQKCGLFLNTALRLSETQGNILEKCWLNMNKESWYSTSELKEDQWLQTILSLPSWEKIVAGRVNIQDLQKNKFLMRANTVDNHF
Quantity Name: IC50 (nM)

Study these solved cases before continuing.
>>> print(df.to_string())
                                   compound  quantity_name  measured_value
0  CC(C)(C)c1ccc(NS(=O)(=O)c2ccc3[nH]c(C(=O)NC4CCOCC4)c(-c4ccccc4)c3c2)cc1           IC50            3000
1  O=C(N[C@H]1CCC[C@H]1O)c1[nH]c2ncc(NS(=O)(=O)c3ccc(C(F)(F)F)cc3)cc2c1-c1ccccc1           IC50              25
2  CC(CO)NC(=O)c1[nH]c2ncc(NS(=O)(=O)c3ccc(C(C)(C)C)cc3)cc2c1-c1ccccc1 (racemic)           IC50              37
3  CC(C)(C)c1ccc(S(=O)(=O)Nc2ccc3[nH]c(/C=C/C(=O)NCCN4CCOCC4)c(-c4ccccc4)c3c2)cc1           IC50            3500

A. CN(c1ccc2[nH]c(C(=O)NCCN3CCOCC3)c(-c3ccccc3)c2c1)S(=O)(=O)c1ccc(C(C)(C)C)cc1
B. CC(O)CNC(=O)/C=C/c1[nH]c2ccc(NS(=O)(=O)c3ccc(C(C)(C)C)cc3)cc2c1-c1ccccc1 (racemic)
[ask] Pick one, A or B : lowest reported IC50. Respond using the label that marks the chosen record.
[reply] A
(A: 2600 nM, B: 4400 nM)
